TGT: LRRK2(G2019S mutation, GST-LRRK2(amino acids 970-2527)) (Homo sapiens, UniProt Q5S007, G2019S)
Construct: GST-LRRK2(amino acids 970-2527); GST (N); purchased Life Technologies Corporation
Sequence (Q5S007 970-2527 G2019S): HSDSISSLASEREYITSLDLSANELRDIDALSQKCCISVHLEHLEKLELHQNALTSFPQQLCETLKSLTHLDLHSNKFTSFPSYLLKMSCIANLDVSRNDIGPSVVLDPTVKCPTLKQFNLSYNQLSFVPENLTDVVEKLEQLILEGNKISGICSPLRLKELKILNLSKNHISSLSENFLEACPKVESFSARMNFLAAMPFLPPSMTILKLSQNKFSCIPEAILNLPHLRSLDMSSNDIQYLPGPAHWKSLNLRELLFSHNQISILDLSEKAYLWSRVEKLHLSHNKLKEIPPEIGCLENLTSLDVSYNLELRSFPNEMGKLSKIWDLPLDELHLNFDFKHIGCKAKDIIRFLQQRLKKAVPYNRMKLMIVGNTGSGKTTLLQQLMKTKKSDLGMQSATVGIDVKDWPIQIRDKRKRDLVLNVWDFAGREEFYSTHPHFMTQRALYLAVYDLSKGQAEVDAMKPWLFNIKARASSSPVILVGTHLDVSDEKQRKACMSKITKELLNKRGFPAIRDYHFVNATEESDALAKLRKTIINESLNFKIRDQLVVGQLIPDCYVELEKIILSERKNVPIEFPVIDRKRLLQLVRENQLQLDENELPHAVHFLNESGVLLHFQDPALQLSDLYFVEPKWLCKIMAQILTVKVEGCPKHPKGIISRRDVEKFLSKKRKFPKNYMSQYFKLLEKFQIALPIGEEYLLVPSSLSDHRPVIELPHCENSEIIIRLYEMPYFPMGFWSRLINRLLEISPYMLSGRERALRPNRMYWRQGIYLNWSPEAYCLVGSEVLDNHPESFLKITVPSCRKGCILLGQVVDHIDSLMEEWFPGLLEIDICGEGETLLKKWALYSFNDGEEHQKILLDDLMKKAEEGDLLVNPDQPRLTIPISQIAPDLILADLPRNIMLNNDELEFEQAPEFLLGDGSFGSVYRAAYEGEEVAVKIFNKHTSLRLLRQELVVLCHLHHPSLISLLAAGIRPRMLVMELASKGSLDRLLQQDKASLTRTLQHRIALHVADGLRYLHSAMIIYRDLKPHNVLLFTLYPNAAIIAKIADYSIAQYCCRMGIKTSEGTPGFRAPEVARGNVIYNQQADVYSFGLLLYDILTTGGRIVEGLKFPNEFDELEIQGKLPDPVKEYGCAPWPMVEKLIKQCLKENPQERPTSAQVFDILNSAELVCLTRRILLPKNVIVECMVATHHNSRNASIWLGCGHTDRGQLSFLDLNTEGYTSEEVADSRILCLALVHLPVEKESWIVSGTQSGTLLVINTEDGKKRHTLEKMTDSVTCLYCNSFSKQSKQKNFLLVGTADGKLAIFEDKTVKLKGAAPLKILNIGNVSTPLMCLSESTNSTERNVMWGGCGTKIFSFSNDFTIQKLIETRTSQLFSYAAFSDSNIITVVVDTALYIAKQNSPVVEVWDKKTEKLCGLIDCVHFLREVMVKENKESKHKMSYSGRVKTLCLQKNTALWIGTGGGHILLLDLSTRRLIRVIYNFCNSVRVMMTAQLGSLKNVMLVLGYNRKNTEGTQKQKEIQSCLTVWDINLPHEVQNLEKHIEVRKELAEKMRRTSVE
PROTOCOL_DETAILS: LRRK2 Km ATP LanthaScreen Assay
Format: biochemical
EXPERIMENTAL_CONTEXT: Km ATP LanthaScreen; mean IC50 of several tests; read-out: LRRK2 IC50
// classify: if (IC50 < 8 nM) label 1 else label 0

In: Does the reported IC50 of the following molecule sit strictly below 8 nM? `Cc1ccc2[nH]nc(-c3ccnc(N4CCOCC4)c3)c2c1`
Out: label 0

In: Does the reported IC50 of the following molecule sit strictly below 8 nM? `COc1ccc2[nH]nc(-c3ccnc(N4CCOCC4)c3)c2c1`
Out: label 1

In: Does the reported IC50 of the following molecule sit strictly below 8 nM? `CCOc1ccc2[nH]nc(-c3ccnc(N4CCC(OC)CC4)c3)c2c1`
Out: label 1

In: Does the reported IC50 of the following molecule sit strictly below 8 nM? `Cc1cnc(-c2ccc3[nH]nc(-c4ccnc(N5CCOCC5)c4)c3c2)nc1`
Out: label 0

In: Does the reported IC50 of the following molecule sit strictly below 8 nM? `OCc1ccc2[nH]nc(-c3ccnc(N4CCOCC4)c3)c2c1`
Out: label 0

In: Does the reported IC50 of the following molecule sit strictly below 8 nM? `CC(C)Oc1ccc2[nH]nc(-c3ccnc(N4CCOC5(CC5)C4)c3)c2c1`
Out: label 1

----------
TGT: LRRK2(G2019S mutation, GST-LRRK2(amino acids 970-2527)) (Homo sapiens, UniProt Q5S007, G2019S)
Construct: GST-LRRK2(amino acids 970-2527); GST (N); purchased Life Technologies Corporation
PROTOCOL_DETAILS: LRRK2 Km ATP LanthaScreen Assay
Type: biochemical
EXPERIMENTAL_CONTEXT: Km ATP LanthaScreen; mean IC50 of several tests; read-out: LRRK2 IC50
Experimental: Unless otherwise noted, all LRRK2 IC50 data presented in tables refers to the LRRK2 Km ATP LanthaScreen™ Assay that is described in the Biological Assay section. The data presented for the 5 mM and Km ATP LanthaScreen™ Assay represents mean IC50 values based on several test results and may have reasonable. deviations depending on the specific conditions and reagents used. […] Results are analysed using Assay Data Analyzer.
pIC50: −log10 of the molar value.
Classification field: Criterion met = pIC50 at or over 8; Criterion not met = pIC50 under 8.

In: Please tell me: is the molecule `CCc1cnc(-c2ccc3[nH]nc(-c4ccnc(N5CCOCC5)c4)c3c2)nc1` at or over 8 in terms of pIC50?
Out: Criterion met

In: Please tell me: is the molecule `O=C1CCN(c2cc(-c3n[nH]c4ccccc34)ccn2)CC1` at or over 8 in terms of pIC50?
Out: Criterion not met

In: Please tell me: is the molecule `COc1ccccc1Nc1cc(-c2n[nH]c3ccc(Nc4cccc(S(C)(=O)=O)c4)cc23)ccn1` at or over 8 in terms of pIC50?
Out: Criterion not met

In: Please tell me: is the molecule `CS(=O)(=O)Cc1cc2c(-c3ccnc(N4CCOCC4)c3)n[nH]c2cc1F` at or over 8 in terms of pIC50?
Out: Criterion not met

In: Please tell me: is the molecule `Cc1cc2[nH]nc(-c3ccnc(N4CCOCC4)c3)c2cc1OC(C)C` at or over 8 in terms of pIC50?
Out: Criterion not met

In: Please tell me: is the molecule `FC(F)(F)Oc1ccc2[nH]nc(-c3ccnc(N4CCOCC4)c3)c2c1` at or over 8 in terms of pIC50?
Out: Criterion not met

In: Please tell me: is the molecule `COc1ncnc(C)c1-c1ccc2[nH]nc(-c3ccnc(N4CCOCC4)c3)c2c1` at or over 8 in terms of pIC50?
Out: Criterion not met

In: Please tell me: is the molecule `COc1cnc(-c2ccc3[nH]nc(-c4ccnc(N5CCOCC5)c4)c3c2)nc1` at or over 8 in terms of pIC50?
Out: Criterion not met

In: Please tell me: is the molecule `COc1ccnc(Cl)c1-c1ccc2[nH]nc(-c3ccnc(N4CCOCC4)c3)c2c1` at or over 8 in terms of pIC50?
Out: Criterion met

In: Please tell me: is the molecule `CC(C)Oc1ccc2[nH]nc(-c3ccnc(NS(=O)(=O)C4CC4)c3)c2c1` at or over 8 in terms of pIC50?
Out: Criterion not met

In: Please tell me: is the molecule `Cc1nnc(-c2ccc3[nH]nc(-c4ccnc(N5CCOCC5)c4)c3c2)o1` at or over 8 in terms of pIC50?
Out: Criterion met

In: Please tell me: is the molecule `Cn1cc(-c2ccc3[nH]nc(-c4ccnc(N5CCC(n6cncn6)CC5)c4)c3c2)cn1` at or over 8 in terms of pIC50?
Out: Criterion met

In: Please tell me: is the molecule `CCCc1cnc(-c2ccc3[nH]nc(-c4ccnc(N5CCOCC5)c4)c3c2)nc1` at or over 8 in terms of pIC50?
Out: Criterion met
